experiment: Solubility in water (HPLC, shaken 2 hours at room temperature); conditions: purified water
OBSERVATION TYPE: solubility at 2 h (µg/mL)
// units = µg/mL; emit number, no label

If you can, please state the reported solubility at 2 h value of CC(=O)O[C@H]1C(=O)[C@@]2(C)[C@H]([C@H](OC(=O)c3ccccc3)[C@]3(O)C[C@H](OC(=O)[C@H](O)[C@@H](NC(=O)c4ccccc4)c4ccccc4)C(C)=C1C3(C)C)[C@]1(OC(C)=O)CO[C@@H]1C[C@@H]2O [Taxol, reference compound] . 0.4

----------
Listed below: solubility at 2 h values for each entry.
assay: Solubility in water (HPLC, shaken 2 hours at room temperature); conditions: purified water with hydrochloric acid
// units = µg/mL; emit number, no label

For orientation, consider the following solved cases.
CC(=O)O[C@H]1C(=O)[C@@]2(C)[C@H]([C@H](OC(=O)c3ccccc3)[C@]3(O)C[C@H](OC(=O)[C@H](O)[C@@H](NC(=O)N4CCC(N5CCCCC5)CC4)c4ccccc4)C(C)=C1C3(C)C)[C@]1(OC(C)=O)CO[C@@H]1C[C@@H]2O = 1590
CCN1CCN(C(=O)O[C@H]2C(=O)[C@@]3(C)[C@H]([C@H](OC(=O)c4ccccc4)[C@]4(O)C[C@H](OC(=O)[C@H](O)[C@@H](NC(=O)OC(C)(C)C)c5ccccc5)C(C)=C2C4(C)C)[C@]2(OC(C)=O)CO[C@@H]2C[C@@H]3O)CC1 = 1180

Let us move to another entry and its solubility at 2 h.
If you can, please state the reported solubility at 2 h value of "CC(=O)O[C@@]12CO[C@@H]1C[C@H](O)[C@@]1(C)C(=O)[C@H](OC(=O)N3CCC(N(C)C)CC3)C3=C(C)[C@@H](OC(=O)[C@H](O)[C@@H](NC(=O)OC(C)(C)C)c4ccccc4)C[C@@](O)([C@@H](OC(=O)c4ccccc4)[C@H]21)C3(C)C" . 1260

----------
assay: Solubility in water (HPLC, shaken 2 hours at room temperature); settings: water with 0.1 n hcl
OBSERVATION TYPE: solubility thermodynamic at 2 h (µg/mL)
// units = µg/mL; emit number, no label

CCN1CCN(C(=O)O[C@H]2C(=O)[C@@]3(C)[C@H]([C@H](OC(=O)c4ccccc4)[C@]4(O)C[C@H](OC(=O)[C@H](O)[C@@H](NC(=O)OC(C)(C)C)c5ccccc5)C(C)=C2C4(C)C)[C@]2(OC(C)=O)CO[C@@H]2C[C@@H]3O)CC1 = 1180
CC(=O)O[C@@]12CO[C@@H]1C[C@H](O)[C@@]1(C)C(=O)[C@H](OC(=O)N3CCC(N(C)C)CC3)C3=C(C)[C@@H](OC(=O)[C@H](O)[C@@H](NC(=O)OC(C)(C)C)c4ccccc4)C[C@@](O)([C@@H](OC(=O)c4ccccc4)[C@H]21)C3(C)C = 1260

If you can, please state the reported solubility thermodynamic at 2 h value of "CC(=O)O[C@H]1C(=O)[C@@]2(C)[C@H]([C@H](OC(=O)c3ccccc3)[C@]3(O)C[C@H](OC(=O)[C@H](O)[C@@H](NC(=O)N4CCC(N5CCCCC5)CC4)c4ccccc4)C(C)=C1C3(C)C)[C@]1(OC(C)=O)CO[C@@H]1C[C@@H]2O" . 1590
